Attribution: patent US8932597B2

- Test system: anti-M2 human monoclonal antibody Z3G1
- Format: binding

>  <substance>
1296 (MSLLYEVETPIRNEWGCRCN; epitope peptide) [compound 1296]

>  <Signal (peptides that bind to Z3G1)>
2464

$$$$
>  <substance>
1351 (MSLLCEVGMSCLCEC; epitope peptide) [compound 1351]

>  <Signal (peptides that bind to Z3G1)>
2492

$$$$
>  <substance>
304 (MSLCTEVGMSLLCEV; epitope peptide) [compound 304]

>  <Signal (peptides that bind to Z3G1)>
2616

$$$$
>  <substance>
1335 (MCLLTEVGMSCLTEV; epitope peptide) [compound 1335]

>  <Signal (peptides that bind to Z3G1)>
1869

$$$$
>  <substance>
339 (MSLLTECGMSLLTEV; epitope peptide) [compound 339]

>  <Signal (peptides that bind to Z3G1)>
2170

$$$$
>  <substance>
626 (SLLTEVETPIRNEWGCRCYDSSD; epitope peptide) [compound 626]

>  <Signal (peptides that bind to Z3G1)>
2385

$$$$
>  <substance>
1259 (MMLLTEVETPIRNEWGCRCN; epitope peptide) [compound 1259]

>  <Signal (peptides that bind to Z3G1)>
2666

$$$$
>  <substance>
1302 (MSLLTEVGTPIRNEWGCRCN; epitope peptide) [compound 1302]

>  <Signal (peptides that bind to Z3G1)>
2789

$$$$
>  <substance>
343 (MSLLTEVGMSLLTEC; epitope peptide) [compound 343]

>  <Signal (peptides that bind to Z3G1)>
2831

$$$$
>  <substance>
1461 (CVETPIRNEWLLTEVETPICTEVETPIRN; epitope peptide; MISC_FEATURE (1)..(1): C is an attachment site for a CLIP; MISC_FEATURE (10)..(10): W is an attachment site for a CLIP; MISC_FEATURE (11)..(11): L is an attachment site for a CLIP; MISC_FEATURE (29)..(29): N is an attachment site for a CLIP) [compound 1461]

>  <Signal (peptides that bind to Z3G1)>
1835

$$$$
>  <substance>
396 (SLLTEVETPIRNEWGCRCNPSSD; epitope peptide) [compound 396]

>  <Signal (peptides that bind to Z3G1)>
2445

$$$$
>  <substance>
1459 (CTEVETPIRNLLTEVETPICTEVETPIRN; epitope peptide; MISC_FEATURE (1)..(1): C is an attachment site for a CLIP; MISC_FEATURE (10)..(10): N is an attachment site for a CLIP; MISC_FEATURE (11)..(11): L is an attachment site for a CLIP; MISC_FEATURE (29)..(29): N is an attachment site for a CLIP) [compound 1459]

>  <Signal (peptides that bind to Z3G1)>
1749

$$$$
>  <substance>
499 (CSLLTEVGMSCLCEC; epitope peptide) [compound 499]

>  <Signal (peptides that bind to Z3G1)>
2101

$$$$

###

Recorded Signal (peptides that show specific binding to Z3G1) by entry
- Tested on: anti-M2 human monoclonal antibody Z3G1
- Type: binding
reported-metric: Signal (peptides that show specific binding to Z3G1)

>  <substance>
1558 (SCLCECGSLLCEV; epitope peptide) [compound 1558]

>  <value-observed>
1747

$$$$
>  <substance>
635 (SLLTEVEAPIRNEWGCRCNDSSD; epitope peptide) [compound 635]

>  <value-observed>
2325

$$$$
>  <substance>
670 (SLLTEVETWIRNEWGCRCNDSSD; epitope peptide) [compound 670]

>  <value-observed>
2146

$$$$
>  <substance>
501 (SLLTEVETPIRNEWGCCCNDSSD; epitope peptide) [compound 501]

>  <value-observed>
2515

$$$$
>  <substance>
268 (SLLTEVETPIRNECGCRCNDSSD; epitope peptide) [compound 268]

>  <value-observed>
2554

$$$$

###

Recorded Signal (peptides that show specific binding to Z3G1) by entry
- System: anti-M2 human monoclonal antibody Z3G1
- Assay type: binding
reported-metric: Signal (peptides that show specific binding to Z3G1)

>  <substance>
593 (SLLTEVEIPIRNEWGCRCNDSSD; epitope peptide) [compound 593]

>  <value-observed>
2365

$$$$
>  <substance>
559 (SLLTEVETAIRNEWGCRCNDSSD; epitope peptide) [compound 559]

>  <value-observed>
2415

$$$$
>  <substance>
500 (SCLTEVGSLLTEV; epitope peptide) [compound 500]

>  <value-observed>
1610

$$$$
>  <substance>
1512 (CTEVETPIRNLLTEVETPICETPIRNEWG; epitope peptide; MISC_FEATURE (1)..(1): C is an attachment site for a CLIP; MISC_FEATURE (10)..(10): N is an attachment site for a CLIP; MISC_FEATURE (11)..(11): L is an attachment site for a CLIP; MISC_FEATURE (29)..(29): G is an attachment site for a CLIP) [compound 1512]

>  <value-observed>
2645

$$$$
>  <substance>
482 (CLCTCVGSLLTEV; epitope peptide) [compound 482]

>  <value-observed>
1953

$$$$
>  <substance>
678 (SLLTEVETPIRSEWGCRCNDSSD; epitope peptide) [compound 678]

>  <value-observed>
2322

$$$$
>  <substance>
719 (SLLTEVETPIRNEWGCTCNDSSD; epitope peptide) [compound 719]

>  <value-observed>
2347

$$$$
>  <substance>
547 (SLLTETETPIRNEWGCRCNDSSD; epitope peptide) [compound 547]

>  <value-observed>
1594

$$$$
>  <substance>
324 (SLCTEVGSLLTEV; epitope peptide) [compound 324]

>  <value-observed>
1780

$$$$
>  <substance>
1515 (CETPIRNEWGLLTEVETPICETPIRNEWG; epitope peptide; MISC_FEATURE (1)..(1): C is an attachment site for a CLIP; MISC_FEATURE (10)..(10): G is an attachment site for a CLIP; MISC_FEATURE (11)..(11): L is an attachment site for a CLIP; MISC_FEATURE (29)..(29): G is an attachment site for a CLIP) [compound 1515]

>  <value-observed>
2427

$$$$
>  <substance>
517 (SLLTEVETPIRNEMGCRCNDSSD; epitope peptide) [compound 517]

>  <value-observed>
2398

$$$$
>  <substance>
659 (SLLTEVETPIRNEWGARCNDSSD; epitope peptide) [compound 659]

>  <value-observed>
2396

$$$$
>  <substance>
657 (SLLTEVDTPIRNEWGCRCNDSSD; epitope peptide) [compound 657]

>  <value-observed>
2095

$$$$
>  <substance>
656 (SLLTEVETPIWNEWGCRCNDSSD; epitope peptide) [compound 656]

>  <value-observed>
2250

$$$$
>  <substance>
1581 (SLLFEVETPIRNEWGCRCNDSSD; epitope peptide) [compound 1581]

>  <value-observed>
2137

$$$$
>  <substance>
390 (CLLTEVGSLLTEV; epitope peptide) [compound 390]

>  <value-observed>
2494

$$$$
>  <substance>
718 (SLLTEVECPIRNEWGCRCNDSSD; epitope peptide) [compound 718]

>  <value-observed>
1974

$$$$
>  <substance>
386 (SLLTEVETPIRNEVGCRCNDSSD; epitope peptide) [compound 386]

>  <value-observed>
2411

$$$$
>  <substance>
527 (SLLTEVEQPIRNEWGCRCNDSSD; epitope peptide) [compound 527]

>  <value-observed>
2344

$$$$
>  <substance>
602 (SLLTEVETEIRNEWGCRCNDSSD; epitope peptide) [compound 602]

>  <value-observed>
2368

$$$$
>  <substance>
545 (SLLTEVSTPIRNEWGCRCNDSSD; epitope peptide) [compound 545]

>  <value-observed>
2288

$$$$
>  <substance>
491 (SLLTEVETLIRNEWGCRCNDSSD; epitope peptide) [compound 491]

>  <value-observed>
2225

$$$$
>  <substance>
329 (SLLTEVGSCLCEC; epitope peptide) [compound 329]

>  <value-observed>
2558

$$$$
>  <substance>
636 (SLLTEVETPIRNEIGCRCNDSSD; epitope peptide) [compound 636]

>  <value-observed>
2402

$$$$
>  <substance>
564 (SLLTEVELPIRNEWGCRCNDSSD; epitope peptide) [compound 564]

>  <value-observed>
2407

$$$$
>  <substance>
622 (SLLTEVETPIRMEWGCRCNDSSD; epitope peptide) [compound 622]

>  <value-observed>
2385

$$$$
>  <substance>
676 (SLLTEVETPIENEWGCRCNDSSD; epitope peptide) [compound 676]

>  <value-observed>
2252

$$$$
>  <substance>
562 (SLLTEVETPIRWEWGCRCNDSSD; epitope peptide) [compound 562]

>  <value-observed>
2302

$$$$
>  <substance>
1567 (HLLTEVETPIRNEWGCRCNDSSD; epitope peptide) [compound 1567]

>  <value-observed>
1946

$$$$
>  <substance>
504 (SLLTEVETPIRNEWGFRCNDSSD; epitope peptide) [compound 504]

>  <value-observed>
2349

$$$$
